T/C values for the molecules below.
test system: CD2F1 mice, L1210 leukemia ip, survival T/C; test: NCI In Vivo Anticancer Drug Screen. Data for tumor model L1210 Leukemia (intraperitoneal) in CD2F1 (CDF1) mice; settings: endpoint: mean survival time; dose: 400.0 mg/kg/injection; schedule: Q01DX001 (ip); vehicle: carboxymethylcellulose (CMC); higher = longer survival
Inconclusive results and toxic doses are left out.

NC(=O)c1ncnnc1N = 102 % of control
CN(C)c1ccc(/C=N/Nc2ncnc(Cl)c2N)cc1 = 95 % of control
Clc1cc(Cl)cc(-c2cc(Cl)cc(Cl)c2)c1 = 95 % of control

Moving on to the next molecule.
Req: What T/C value was documented for this molecule, Nc1cc(=O)c2[nH]cnc2[nH]1 ?
Resp: 101 % of control

The origin of these recorded values is PubChem BioAssay AID256.
